# experimentalTarget: Guanine nucleotide-binding protein subunit alpha-11 (Homo sapiens, UniProt P29992)
# Sequence (P29992 whole entry): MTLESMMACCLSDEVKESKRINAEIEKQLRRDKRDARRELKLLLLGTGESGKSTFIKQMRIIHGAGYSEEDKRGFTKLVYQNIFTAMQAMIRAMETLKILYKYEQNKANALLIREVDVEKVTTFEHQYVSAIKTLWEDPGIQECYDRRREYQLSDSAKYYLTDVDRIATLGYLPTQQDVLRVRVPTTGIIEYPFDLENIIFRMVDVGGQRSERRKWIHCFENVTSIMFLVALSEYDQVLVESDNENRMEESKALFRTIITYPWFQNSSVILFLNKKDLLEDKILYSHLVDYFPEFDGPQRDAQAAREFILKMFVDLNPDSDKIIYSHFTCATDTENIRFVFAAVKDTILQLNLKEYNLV
# runDescription: Inhibition of recombinant human Gq/11 coupled N-terminal 3His-tagged M1 receptor expressed in CHOK1 cells assessed as reduction in carbachol-induced IP1 accumulation pretreated for 1 hr followed by carbachol addition and subsequent incubation for 1 hr at 37 degC measured after 15 mins at room temperature by HTRF assay
*1 amine or outer side, *2 acyl side, *3 side chain or, on linkers, in order; H or OH if unused. Where a SMILES comes first, the peptide text is derived from it. Bridges are numbered along the chain shown (N, C = ends). [ ]: non-standard residue; d: D form. Leu(3R-O(AcLeu(3R-OH))) = CC(=O)N[C@H](C(=O)O[C@H](C(C)C)[C@H](N)C(=O)O)[C@H](O)C(C)C; X1 = CC(C)[C@@H](O[*:3])[C@H](N[*:1])C(=O)[*:2]; NMeT = CN[C@H](C(=O)O)[C@@H](C)O; dPhLac = O=C(O)[C@H](O)Cc1ccccc1; NMeA = CN[C@@H](C)C(=O)O; NMeDha = C=C(NC)C(=O)O
endpoint: IC50 (µM)

- compound: "C=C1C(=O)N[C@@H](C)C(=O)N(C)[C@@H](C)C(=O)N[C@@H]([C@H](OC(=O)[C@@H](NC(=O)c2ccccc2)[C@H](O)C(C)C)C(C)C)C(=O)N(C)[C@@H]([C@@H](C)OC)C(=O)O[C@H](C)[C@H](NC(C)=O)C(=O)O[C@H](Cc2ccccc2)C(=O)N1C"
  readoutValue: 2.34
- compound: "C=C1C(=O)N[C@@H](C)C(=O)N(C)[C@@H](C)C(=O)N[C@@H]([C@H](OC(=O)[C@@H](NC(C)=O)[C@H](O)C(C)C)C(C)C)C(=O)N(C)[C@@H]([C@@H](C)OC)C(=O)OC[C@H](NC(C)=O)C(=O)O[C@H](Cc2ccccc2)C(=O)N1C"
  readoutValue: 1.89
- compound: "C=C1C(=O)N[C@H](C)C(=O)N(C)[C@@H](C)C(=O)N[C@@H]([C@H](OC(=O)[C@@H](NC(C)=O)[C@H](O)C(C)C)C(C)C)C(=O)N(C)[C@@H]([C@@H](C)OC)C(=O)O[C@H](C)[C@H](NC(C)=O)C(=O)O[C@H](Cc2ccccc2)C(=O)N1C"
  readoutValue: 36.6
- compound: "C=C1C(=O)N[C@@H](C)C(=O)N(C)[C@@H](C)C(=O)N[C@@H]([C@H](OC(=O)[C@@H](NC(C)=O)[C@H](O)C(C)C)C(C)C)C(=O)N(C)[C@@H]([C@@H](C)OC)C(=O)O[C@H](C)[C@H](NC(C)=O)C(=O)O[C@H](Cc2ccccc2)C(=O)N1C"
  readoutValue: 0.15
- compound: "C=C1C(=O)N[C@@H](C)C(=O)N(C)[C@@H](C)C(=O)N[C@@H]([C@H](OC(=O)[C@@H](NC(C)=O)[C@H](O)C(C)C)C(C)C)C(=O)N(C)[C@@H]([C@@H](C)OC)C(=O)O[C@H](C(C)C)[C@H](NC(C)=O)C(=O)O[C@H](Cc2ccccc2)C(=O)N1C (Ac-[X1][dPhLac][NMeDha]A[NMeA][Leu(3R-O(AcLeu(3R-OH)))][NMeT](Me); ester 1-C)"
  readoutValue: 0.31

Values compiled from ChEMBL document CHEMBL4270579.
